This collection of values is drawn from patent EP4775582A1.

# Tested on: NCI-H441 cells
# experiment: 3D cell proliferation assay (CellTiter Glo-3D), NCI-H441
# Assay type: cell-based, human
# assay_context: Homo sapiens, 120 h, NCI-H441 cells (KRAS G12V), 2% FBS, 5 days, read-out: H441 AP IC50
Attribute: pIC50
Remember the convention: pIC50 equals -log10 of concentration in molar.

Example entries and their recorded answers appear below.
compound	pIC50
CCn1c(-c2cc(C#CCN3CCCN(C(=O)CO)CC3)cnc2[C@H](C)OC)c2c3cc(ccc31)-c1csc(n1)C[C@H](NC(=O)[C@H]1[C@H](C)[C@@H]1C)C(=O)N1CCC[C@H](N1)C(=O)OCC(C)(C)C2 (atropisomer, axis not shown; (Ra))	9.89
CO[C@@H](C)c1ncc(C#CCN2CCN(C(=O)CN)CC2)cc1-c1c2c3cc(ccc3n1C(C)C)-c1csc(n1)C[C@H](NC(=O)[C@H]1[C@@H]3COC[C@@H]31)C(=O)N1CCC[C@H](N1)C(=O)OCC(C)(C)C2 (atropisomer, axis not shown; (Ra))	8.52

Look up pIC50 for this compound: CCn1c(-c2cc(C#CCN3CCN(C(=O)CN)CC3)cnc2C(C)OC)c2c3cc(ccc31)-c1csc(n1)CC(NC(=O)C1C3COCC31)C(=O)N1CCCC(N1)C(=O)OCC(C)(C)C2 (atropisomer, axis not shown; (Ra)) 9.12

What do we get for CCn1c(-c2cc(C#CCN3CCC(C(=O)NCCO)CC3)cnc2[C@H](C)OC)c2c3cc(ccc31)-c1csc(n1)C[C@H](NC(=O)[C@H]1[C@@H]3COC[C@@H]31)C(=O)N1CCC[C@H](N1)C(=O)OCC(C)(C)C2 (atropisomer, axis not shown; (Ra)) ? 9.39

What do we get for CCn1c(-c2cc(C#CCN3CCC(C#N)(CO)CC3)cnc2[C@H](C)OC)c2c3cc(ccc31)-c1csc(n1)C[C@H](NC(=O)[C@H]1[C@@H]3COC[C@@H]31)C(=O)N1CCC[C@H](N1)C(=O)OCC(C)(C)C2 (atropisomer, axis not shown; (Ra)) ? 9.96

What do we get for CCn1c(-c2cc(C#CCN3CCS(=O)(=O)CC3)cnc2[C@H](C)NC)c2c3cc(ccc31)-c1csc(n1)C[C@H](NC(=O)[C@H]1[C@H](C)[C@@H]1C)C(=O)N1CCC[C@H](N1)C(=O)OCC(C)(C)C2 (atropisomer, axis not shown; (Ra)) ? 9.96

What do we get for CCn1c(-c2cc(C#CCN3CCN(C(=O)CO)CC3)cnc2C(C)OC)c2c3cc(ccc31)-c1csc(n1)CC(NC(=O)C1C(C)C1C)C(=O)N1CCCC(N1)C(=O)OCC(C)(C)C2 (atropisomer, axis not shown; (Ra)) ? 9.55

What do we get for CCn1c(-c2cc(C#CCN3CCC(O)CC3)cnc2C(C)OC)c2c3cc(ccc31)-c1csc(n1)CC(NC(=O)C1C(C)C1C)C(=O)N1CCCC(N1)C(=O)OCC(C)(C)C2 (atropisomer, axis not shown; (Ra)) ? 10.00

----------
# target_or_test_system: KRAS WT-cRAF (Homo sapiens, UniProt P01116+P62937)
# Sequence (P01116 1-188 isoform P01116-2): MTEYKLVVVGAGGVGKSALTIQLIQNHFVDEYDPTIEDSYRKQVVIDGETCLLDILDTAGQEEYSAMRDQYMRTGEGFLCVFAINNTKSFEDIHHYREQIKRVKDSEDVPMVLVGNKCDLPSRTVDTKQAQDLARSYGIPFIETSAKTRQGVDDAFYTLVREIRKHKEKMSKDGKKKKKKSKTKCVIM
# Sequence (P62937 whole entry): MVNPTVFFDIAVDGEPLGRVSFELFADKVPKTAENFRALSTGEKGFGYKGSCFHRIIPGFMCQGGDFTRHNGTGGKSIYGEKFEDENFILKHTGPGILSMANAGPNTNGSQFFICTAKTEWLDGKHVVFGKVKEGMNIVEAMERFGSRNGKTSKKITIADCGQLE
# experiment: Assay for binding of KRAS to cRAF (HTRF, with Cyclophilin A), KRAS WT
# assay_context: KRAS WT-cRAF binding assay(nM), GPPNP-KRAS WT, IC50 values
Attribute: IC50
Unit nM implied. Number only.

Example entries and their recorded answers appear below.
molecule	measured
CCn1c(-c2cc(C#CCN3CCS(=O)(=O)CC3)cnc2C(C)OC)c2c3cc(ccc31)-c1csc(n1)CC(NC(=O)C1C(C)C1C(=O)NCCO)C(=O)N1CCCC(N1)C(=O)OCC(C)(C)C2 (atropisomer, axis not shown; (Ra)) [Compound Z13-1]	21.8
CCn1c(-c2cc(C#CCN3CCC(O)CC3)cnc2C(C)OC)c2c3cc(ccc31)-c1csc(n1)CC(NC(=O)C1C(C)C1C)C(=O)N1CCCC(N1)C(=O)OCC(C)(C)C2 (atropisomer, axis not shown; (Ra))	27.7

Look up IC50 for this molecule: CCn1c(-c2cc(C#CCN3CCC(C#N)CC3)cnc2C(C)OC)c2c3cc(ccc31)-c1coc(n1)CC(NC(=O)C1C(C)C1C)C(=O)N1CCCC(N1)C(=O)OCC(C)(C)C2 (atropisomer, axis not shown; (Ra)) 18.7

What do we get for CCn1c(-c2cc(C#CCN3CCS(=O)(=O)CC3)cnc2C(C)O)c2c3cc(ccc31)-c1csc(n1)CC(NC(=O)C1C(C)C1C)C(=O)N1CCCC(N1)C(=O)OCC(C)(C)C2 (atropisomer, axis not shown; (Ra)) ? 15.3
